# Ki against Metabotropic glutamate receptor 5 (Homo sapiens, UniProt P41594), merged from multiple literature sources
Lab note: anything with Ki below 60 nM is marked Y; values at 60 nM or higher are marked N.

[
  {
    "COMPOUND": "COc1ccnc(-n2cc(C#Cc3ccnc(Cl)c3)nc2C)n1",
    "ASSIGNED CLASS": "Y"
  },
  {
    "COMPOUND": "Clc1cccc(Nc2ncc(-c3cccnc3)c3cccnc23)c1",
    "ASSIGNED CLASS": "Y"
  },
  {
    "COMPOUND": "Cc1cc(NC(=O)c2nc(C)ccc2Nc2cncc(C#N)c2)ccn1",
    "ASSIGNED CLASS": "N"
  },
  {
    "COMPOUND": "Cc1nc(C#Cc2ccnc(Cl)c2)cn1-c1ccc(Cl)c(Cl)c1",
    "ASSIGNED CLASS": "Y"
  }
]

Here's an entry: "Cc1nc(C#Cc2ccnc(Cl)c2)cn1C" . Is its Ki below 60 nM? Y
